Data export: IC50 values recorded with His tagged full-length PTP1B protein (Homo sapiens, UniProt P18031).
Sequence (P18031 with tags, fused parts or gaps): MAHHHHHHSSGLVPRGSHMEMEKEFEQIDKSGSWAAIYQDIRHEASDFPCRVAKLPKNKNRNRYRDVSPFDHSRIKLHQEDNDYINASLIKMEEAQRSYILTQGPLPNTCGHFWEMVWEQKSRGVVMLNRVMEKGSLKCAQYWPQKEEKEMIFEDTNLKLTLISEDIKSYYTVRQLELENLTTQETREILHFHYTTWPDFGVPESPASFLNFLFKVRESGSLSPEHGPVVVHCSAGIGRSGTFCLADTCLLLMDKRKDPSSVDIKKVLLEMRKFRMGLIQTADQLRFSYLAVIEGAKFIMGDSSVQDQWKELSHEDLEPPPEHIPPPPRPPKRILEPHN
METRIC: IC50

CCNC(=O)NCCOc1ccc2cc(O)c(N3CC(=O)NS3(=O)=O)c(F)c2c1 = 0.001 to 0.01 µM
CCCCS(=O)(=O)N1CC=C(c2ccc3cc(O)c(N4CC(=O)NS4(=O)=O)c(F)c3c2)C1 = < 0.001 µM
O=C1CN(c2c(O)cc3cc(O)ccc3c2F)S(=O)(=O)N1 = 0.001 to 0.01 µM
O=C1CN(c2c(O)cc3ccc(OCC(F)F)cc3c2F)S(=O)(=O)N1 = 0.01 to 0.1 µM
O=C1CN(c2c(O)cc3ccc(OCCO)cc3c2F)S(=O)(=O)N1 = > 0.1 µM
CCOc1ccc2cc(O)c(N3CC(=O)NS3(=O)=O)c(F)c2c1 = > 0.1 µM
CC(C)(CCN)CCOc1ccc2cc(O)c(N3CC(=O)NS3(=O)=O)c(F)c2c1 = < 0.001 µM
O=C1CN(c2c(O)cc3ccc(CNCC4CC4)cc3c2F)S(=O)(=O)N1 = 0.01 to 0.1 µM
O=C1CN(c2c(O)cc3cc(OCC4CC4)ccc3c2F)S(=O)(=O)N1 = 0.01 to 0.1 µM
CC(C)(O)CCOc1cc2c(F)c(N3CC(=O)NS3(=O)=O)c(O)cc2cc1O = < 0.001 µM
Nc1ccc(CS(=O)(=O)N2CC=C(c3ccc4cc(O)c(N5CC(=O)NS5(=O)=O)c(F)c4c3)C2)cc1 = 0.001 to 0.01 µM
CC(C)CCNc1ccc2c(F)c(N3CC(=O)NS3(=O)=O)c(O)cc2c1 = 0.01 to 0.1 µM
CC(C)CNc1ccc2cc(O)c(N3CC(=O)NS3(=O)=O)c(F)c2c1 = 0.001 to 0.01 µM
[2H]c1c(O)c(N2C([2H])([2H])C(=O)NS2(=O)=O)c(F)c2cc(OC)ccc12 = 0.001 to 0.01 µM
N#CC1(CNc2ccc3cc(O)c(N4CC(=O)NS4(=O)=O)c(F)c3c2)CC1 = 0.001 to 0.01 µM
O=C1CN(c2c(O)c(Br)c3ccc(-c4ccn(S(=O)(=O)C5CC5)c4)cc3c2F)S(=O)(=O)N1 [Compound 231B] = 0.001 to 0.01 µM
O=C1CN(c2c(O)cc3ccc(C4CNC4)cc3c2F)S(=O)(=O)N1 = 0.01 to 0.1 µM
O=C1CN(c2c(O)cc3ccc(/C=C/C4CC4)cc3c2F)S(=O)(=O)N1 = 0.01 to 0.1 µM
CC(C)(N)CCOc1ccc2cc(O)c(N3CC(=O)NS3(=O)=O)c(F)c2c1 = 0.001 to 0.01 µM
N#CCOc1ccc2cc(O)c(N3CC(=O)NS3(=O)=O)c(F)c2c1 = > 0.1 µM
CCS(=O)(=O)N1CC=C(c2ccc3cc(O)c(N4CC(=O)NS4(=O)=O)c(F)c3c2)C1 = < 0.001 µM
O=C1CN(c2c(O)cc3ccc(C4=CCN(C(=O)C5CC5)C4)cc3c2F)S(=O)(=O)N1 = < 0.001 µM
O=C1CN(c2c(O)cc3ccc(OC4COC4)cc3c2F)S(=O)(=O)N1 = 0.001 to 0.01 µM
CC(C)CCOc1ccc2cc(O)c(N3CC(=O)NS3(=O)=O)c(F)c2c1 = < 0.001 µM
COCCNCCOc1ccc2cc(O)c(N3CC(=O)NS3(=O)=O)c(F)c2c1 = 0.01 to 0.1 µM
O=C1CN(c2c(O)cc3cc(O)c(Br)cc3c2F)S(=O)(=O)N1 = 0.001 to 0.01 µM
O=C1CN(c2c(O)cc3ccc(C4=CCOC4)cc3c2F)S(=O)(=O)N1 = 0.01 to 0.1 µM
O=C1CN(c2c(O)cc3ccc(-c4cnn(CC5CC5)c4)cc3c2F)S(=O)(=O)N1 = < 0.001 µM
O=C1CN(c2c(O)cc3ccc(C4CC4)cc3c2F)S(=O)(=O)N1 = > 0.1 µM
O=C1CN(c2c(O)cc3cc(O)c(OCCCC(F)F)cc3c2F)S(=O)(=O)N1 = < 0.001 µM
CC(C)(CO)CS(=O)(=O)N1CC=C(c2ccc3cc(O)c(N4CC(=O)NS4(=O)=O)c(F)c3c2)C1 = < 0.001 µM
O=C1CN(c2c(O)cc3ccc(C4=CCN(S(=O)(=O)CCCC(F)(F)F)C4)cc3c2F)S(=O)(=O)N1 = < 0.001 µM
O=C1CN(c2c(O)cc3ccc(-c4cccnc4)cc3c2F)S(=O)(=O)N1 = > 0.1 µM
